Values were extracted from ChEMBL document CHEMBL1201862.

# Tested on: K562
# assay-notes: NCI tumour cell line growth inhibition, 48 h
Calls of active or inactive are those of the source. Rule as the data show it: active = GI50 up to about 1.1 µM and inactive = higher.
Return exactly one item of 1.0 = active, 0.0 = inactive

// below: answered compounds
input: Any idea what this test logged for CCOC(=O)NC(C(=O)OCC)(N1CCN(c2cc3c(cc2F)c(=O)c(C(=O)O)cn3CC)CC1)C(F)(F)F (configuration not stated) ?
output: 0.0

input: Any idea what this test logged for COc1ccc(Nc2nnc(CCCCCCCCc3nnc(Nc4ccc(OC)cc4)o3)o2)cc1 ?
output: 0.0

input: Any idea what this test logged for O=C1Nc2ccccc2/C1=C1\C(=O)Nc2ccccc21 [ISOINDIGO] ?
output: 0.0

Please turn your attention to the following entry.
input: Any idea what this test logged for O=C(NNC(=O)c1ccccc1O)c1cccs1 ?
output: 0.0

###

# System: SF-268
# assay-notes: NCI tumour cell line growth inhibition, 48 h
Active and inactive are the calls of the source. Cut-off read from the data, not from the text of the source: active = GI50 up to about 1.1 µM and inactive = higher.
Return exactly one item of 1 (active), 0 (inactive)

input: Any idea what this test logged for Cl/C(=C\C=N\c1ccc(I)cc1)c1ccc2ccccc2c1 ?
output: 0

input: Any idea what this test logged for [O-]c1c2cc(-[n+]3c(-c4ccccc4)cc(-c4ccccc4)cc3-c3ccccc3)cc1CO[C@@H](c1ccccc1)[C@H](c1ccccc1)OCCOCCO[C@@H](c1ccccc1)[C@H](c1ccccc1)OC2 ?
output: 1

More entries:
input: Any idea what this test logged for Cc1ccc(-c2cc(N)n(-c3nc4c([nH]3)c(=O)n(C)c(=O)n4C)n2)cc1 ?
output: 0

input: Any idea what this test logged for CN1CCN(C2=NCCO2)CC1 ?
output: 0

input: Any idea what this test logged for O=C(NNCc1ccc(Cl)cc1)Nc1cccc2ccccc12 ?
output: 0

input: Any idea what this test logged for O=C(/C=C/c1ccccc1)/C=C/c1ccccc1O ?
output: 0

###

# System: HT-29
# assay-notes: NCI tumour cell line growth inhibition, 48 h
Active and inactive are the calls of the source. Cut-off read from the data, not from the text of the source: active = GI50 up to about 1.1 µM and inactive = higher.
readout-type: GI50

Look over these answered cases.
input: Request: GI50, test system HT-29, entry CCc1cc2c(oc3cc4ccccc4cc32)c(=O)[nH]1
output: > 10 µM (inactive)

input: Request: GI50, test system HT-29, entry CCCN(CCC)CCc1cc(C(C)=O)n(S(=O)(=O)c2ccc(C)cc2)c1
output: 45.6 µM (inactive)

More entries:
input: Request: GI50, test system HT-29, entry CC(C)CCC[C@@H](C)[C@H]1CCC2C3CC=C4C[C@@H](Oc5c6ccccc6nc6ccccc56)CCC4C3CCC21 (some centres undefined)
output: > 50 µM (inactive)

input: Request: GI50, test system HT-29, entry COc1cc(C2c3[nH]c4ccccc4c3[C@@H](Nc3ccc(C#N)cc3)[C@H]3COC(=O)N23)cc(OC)c1O (some centres undefined)
output: 0.3 µM (active)

input: Request: GI50, test system HT-29, entry CCOC(=O)NN(C(=O)OCC)C(=C(c1ccccc1)N1CCOCC1)N(NC(=O)OCC)C(=O)OCC
output: > 100 µM (inactive)

input: Request: GI50, test system HT-29, entry CCOP(=O)(OCC)C1CC(C)OC1=O (centres undefined)
output: > 100 µM (inactive)

###

Measured GI50 accompanies every entry in the list below.
# Tested on: RXF 393
# assay-notes: NCI tumour cell line growth inhibition, 48 h
Activity calls are given as the source filed them. Cut-off read from the data, not from the text of the source: active = GI50 up to about 1.1 µM and inactive = higher.

Look over these answered cases.
input: # query: GI50 of entry C/C=C(\C)CC/C=C/CO[Si](C)(C)C(C)(C)C
output: > 100 µM (inactive)

input: # query: GI50 of entry COc1ccc2nc3n(c2c1)C(c1c(F)cccc1Cl)SC3 (stereo unspecified)
output: > 100 µM (inactive)

input: # query: GI50 of entry Cc1c([N+](=O)[O-])oc2ccc3ccccc3c12
output: 21.4 µM (inactive)

More entries:
input: # query: GI50 of entry COc1ccc(C2c3cc4c(cc3OC(Nc3ccccc3)C2C)OCO4)cc1 (stereo unspecified)
output: 33.5 µM (inactive)

input: # query: GI50 of entry CCCn1c(=O)c2nn3c(=O)n(CCC)c(=O)c3nn2c1=O
output: > 100 µM (inactive)

input: # query: GI50 of entry COC(=O)[C@@H]1[C@H](O)[C@H](C)[C@H](O)[C@H](C)/C=C\C=C(\C)C(=O)Nc2c(C)c(OC(C)=O)c3c(c2O)C(=O)C(C)=C2OCOC(=C23)/C(C)=C/[C@@H](O)[C@H](O)[C@@H](C)[C@H]1OC(C)=O
output: > 100 µM (inactive)
